# EC50 per record follows
System: REH
Assay: Cytotoxic activity against human REH cells after 48 hrs by fluorescent resazurin dye assay
Format: functional, cell-based
property name: EC50 (µM)

[[record]]
cpd_smiles = "CN1CCN(C(=O)c2ccc3c(NCCc4c[nH]c5ccccc45)c4ccccc4nc3c2)CC1"
test_result = 4.1

[[record]]
cpd_smiles = "CCN(CC)C(=O)c1ccc2c(NCCc3c[nH]c4ccccc34)c3ccccc3nc2c1"
test_result = 15.5

[[record]]
cpd_smiles = "CN1CCN(C(=O)c2ccc3c(NC4CCN(Cc5ccccc5)CC4)c4ccccc4nc3c2)CC1"
test_result = 21

[[record]]
cpd_smiles = "CN1CCN(C(=O)c2cccc3c(NCCc4c[nH]c5ccccc45)c4ccccc4nc23)CC1"
test_result = 19.7


###

System: DU-145
Test: Cytotoxic activity against human DU145 cells after 48 hrs by fluorescent resazurin dye assay
Format: functional, cell-based
Conditions: DU-145, 48 h
pEC50: −log10 of the molar value.
# pEC50 per record follows
property name: pEC50

[[record]]
cpd_smiles = "CN1CCN(C(=O)c2cccc3c(NCCc4c[nH]c5ccccc45)c4ccccc4nc23)CC1"
test_result = 4.43

[[record]]
cpd_smiles = "CN1CCN(C(=O)c2ccc3c(NC4CCN(Cc5ccccc5)CC4)c4ccccc4nc3c2)CC1"
test_result = 4.49

[[record]]
cpd_smiles = "CN1CCN(C(=O)c2ccc3c(NCCc4c[nH]c5ccccc45)c4ccccc4nc3c2)CC1"
test_result = 4.78

[[record]]
cpd_smiles = "CCN(CC)C(=O)c1ccc2c(NCCc3c[nH]c4ccccc34)c3ccccc3nc2c1"
test_result = 4.92


###

Tested on: MCF7
Assay: Cytotoxic activity against human MCF7 cells after 48 hrs by fluorescent resazurin dye assay
Type: functional, cell-based
Conditions: MCF7, 48 h
property name: EC50 (µM)

[[record]]
cpd_smiles = "CCN(CC)C(=O)c1ccc2c(NCCc3c[nH]c4ccccc34)c3ccccc3nc2c1"
test_result = 13.5

[[record]]
cpd_smiles = "CN1CCN(C(=O)c2ccc3c(NCCc4c[nH]c5ccccc45)c4ccccc4nc3c2)CC1"
test_result = 19.2

[[record]]
cpd_smiles = "CN1CCN(C(=O)c2ccc3c(NC4CCN(Cc5ccccc5)CC4)c4ccccc4nc3c2)CC1"
test_result = 25.7

[[record]]
cpd_smiles = "CN1CCN(C(=O)c2cccc3c(NCCc4c[nH]c5ccccc45)c4ccccc4nc23)CC1"
test_result = 37.2


###

Test system: HCT-116
Assay: Cytotoxic activity against human HCT116 cells after 48 hrs by fluorescent resazurin dye assay
Format: functional, cell-based
Settings: HCT-116, 48 h
# EC50 per record follows
property name: EC50 (µM)

[[record]]
cpd_smiles = "CCN(CC)C(=O)c1ccc2c(NCCc3c[nH]c4ccccc34)c3ccccc3nc2c1"
unit_tag = "µM"
test_result = 11.2

[[record]]
cpd_smiles = "CN1CCN(C(=O)c2cccc3c(NCCc4c[nH]c5ccccc45)c4ccccc4nc23)CC1"
unit_tag = "µM"
test_result = 29

[[record]]
cpd_smiles = "CN1CCN(C(=O)c2ccc3c(NC4CCN(Cc5ccccc5)CC4)c4ccccc4nc3c2)CC1"
unit_tag = "µM"
test_result = 29.2

[[record]]
cpd_smiles = "CN1CCN(C(=O)c2ccc3c(NCCc4c[nH]c5ccccc45)c4ccccc4nc3c2)CC1"
unit_tag = "µM"
test_result = 27.6

